system: Plasmodium falciparum; test: Screen against P. falciparum Asexual Blood Stage (ABS), at 5uM; assay type: functional, Dd2; settings: tested at 5 uM
The campaign covered roughly 65,000 compounds. About 2,100 (3.2%) showed an effect of 50% or more. The median lay at about -52%. Shown is part of a subset that was picked to be rich in strong results.
PARAMETER_MEASURED: INHIBITION (%)
The response must be a number in % with no trailing unit.

Lab note: measured INHIBITION of COCC1CC2(CCN(C(C)=O)CC2)CN1Cc1csc(C)n1 (stereo unspecified) was -7.46

Lab note: measured INHIBITION of Fc1cccnc1Oc1cc(F)c(CN2CCCC2)c(Cl)c1 was -49.5

Lab note: measured INHIBITION of COCC1CC2(CCN(CC3CC3)CC2)CN1Cc1csc(C)n1 (stereo unspecified) was 53.4

Lab note: measured INHIBITION of CCOc1ccc(Cl)c(C(=O)NCCC(=O)Nc2ccccn2)n1 was 31.1

Lab note: measured INHIBITION of COc1ncccc1CN1C[C@@H]2COC[C@]2(COc2cccnc2)C1 was -33.8

Lab note: measured INHIBITION of COCCN1C[C@@H]2CN(c3ncc(F)cn3)C[C@@H]2C1=O was -65.7

Lab note: measured INHIBITION of COCCN1CCC2(CC1)CCN(Cc1ccccn1)CC2 was 52.2

Lab note: measured INHIBITION of COCC1CC2(CCN(C(=O)c3ccco3)CC2)CN1C(C)C (stereo unspecified) was 24.5

Lab note: measured INHIBITION of COCC(=O)N1CCC2(CC1)CC(COC)N(Cc1ccccn1)C2 (stereo unspecified) was -56

Lab note: measured INHIBITION of COCC1CC2(CCN(Cc3nccs3)CC2)CN1Cc1ccccn1 (stereo unspecified) was 1.23

Lab note: measured INHIBITION of CCN1CCC2(CC1)CC(COC)N(Cc1csc(C)n1)C2 (stereo unspecified) was -19.2

* * *

system: Plasmodium falciparum; experiment: Screen against P. falciparum Asexual Blood Stage (ABS), at 5uM; format: functional, Dd2; conditions: tested at 5 uM
About 2,100 (3.2%) of roughly 65,000 compounds showed an effect of 50% or more. The median lay at about -52%. Only a selection was taken, and strong results are over-represented in it overall.
PARAMETER_MEASURED: INHIBITION (%)
The response must be a number in % with no trailing unit.

Lab note: measured INHIBITION of CNS(=O)(=O)c1cccc(C(C)NCc2cccc(OC)c2)c1 (stereo not drawn) was 3.75

Lab note: measured INHIBITION of CCn1cc(CNCC(c2ccc(C)s2)N2CCOCC2)cn1 (stereo not drawn) was 65.7

Lab note: measured INHIBITION of COCc1ncn2c1CN(C(=O)Nc1cccc(OC)c1)CC2 was -101

Lab note: measured INHIBITION of COc1c(CNCc2ccccc2Cn2cncn2)c(C)nn1C was 3.03

Lab note: measured INHIBITION of Cc1ncc(CN2CCC(CNS(=O)(=O)C3CC3)C2)cn1 (stereo not drawn) was -131

Lab note: measured INHIBITION of Cc1cc(C(=O)NCc2ccnc(N3CCN(C)CC3)c2)sc1C was -5.05

Lab note: measured INHIBITION of CCOC(=O)[C@H]1[C@@H](O)C(=O)N(C)C12CCN(C(=O)c1ccccc1)CC2 was -32.3

Lab note: measured INHIBITION of CC(C)(C)c1n[nH]cc1CNCC1CCN(C2CC2)C1 (stereo not drawn) was 52.2

Lab note: measured INHIBITION of Cc1ccc(C(CNCc2cccn2C)N2CCOCC2)s1 (stereo not drawn) was -38.5

Lab note: measured INHIBITION of CN(C(=O)NCc1ccncc1)C1CCN(c2ccccc2)C1=O (stereo not drawn) was -128

Lab note: measured INHIBITION of Cc1ccc(C(CNCC2CC2)N2CCOCC2)s1 (stereo not drawn) was 26.8

Lab note: measured INHIBITION of CC(C)n1nc(Cn2cccc2)c2c1CN(Cc1ccoc1)C2 was -92.6

Lab note: measured INHIBITION of OC(c1ccccn1)C1CCN(Cc2cc3n(n2)CCNC3)CC1 (stereo not drawn) was -27.2

Lab note: measured INHIBITION of COCCCNc1ncc(-c2cccc(F)c2)c(-c2nccn2C)n1 was -138

Lab note: measured INHIBITION of COc1c(CNCc2ccc(Cn3cccn3)cc2)c(C)nn1C was 14.8

Lab note: measured INHIBITION of Cc1cc(C)n(CC2CN(CCOc3ccc(C#N)cc3)CCO2)n1 (stereo not drawn) was -114

Lab note: measured INHIBITION of c1ccc(CCN2CCCC(Cn3ccnc3)C2)cc1 (stereo not drawn) was 64.5

Lab note: measured INHIBITION of Cc1nnsc1CN1C[C@H]2CC[C@@H](C1)N(Cc1ccccc1)C2 was -69.4

Lab note: measured INHIBITION of COC1(CNC(=O)NCCOc2ccccc2)CCSC1 (stereo not drawn) was -45.4

Lab note: measured INHIBITION of CC1N(c2cnn(C)c2)C(=O)COC12CCN(c1ncccn1)CC2 (stereo not drawn) was -127

Lab note: measured INHIBITION of COCCNc1ncc(-c2cccc(OC)c2)c(-c2nccn2C)n1 was 69.3

Lab note: measured INHIBITION of COCCn1cc2c(n1)C(CNCc1ccc(F)cc1)OCC2 (stereo not drawn) was -11.4

Lab note: measured INHIBITION of Cc1cccc(-n2ncc3c2CCCC3NCC(C)(C)CO)c1C (stereo not drawn) was -58.1

Lab note: measured INHIBITION of O=C(C1NCCc2[nH]cnc21)N1CCC2(C=Cc3ccccc32)CC1 (stereo not drawn) was -16.1

Lab note: measured INHIBITION of CCc1nnc2n1CCN(Cc1cccc3c1OCCO3)C2 was 43.7

Lab note: measured INHIBITION of Cc1ncsc1C(=O)NCc1ccnc(N2CCN(C)CC2)c1 was 62.9

Lab note: measured INHIBITION of Cc1ccc(C(CNCc2ncc[nH]2)N2CCOCC2)s1 (stereo not drawn) was 34.5

Lab note: measured INHIBITION of Cc1ccc(C(CNCc2ccc(C#N)cc2)N2CCOCC2)s1 (stereo not drawn) was 52.3

Lab note: measured INHIBITION of CC(C)c1ccc(CN2CCC(CNS(=O)(=O)C3CC3)C2)cc1 (stereo not drawn) was 59.4

Lab note: measured INHIBITION of Cc1ccc(C(CNCc2cnn(C(C)C)c2)N2CCOCC2)s1 (stereo not drawn) was 35.9

Lab note: measured INHIBITION of CCc1nnc2n1CCN(CC(O)c1ccc3c(c1)OCCO3)C2 (stereo not drawn) was 66.3

Lab note: measured INHIBITION of Cc1nc(Oc2ccccc2Cl)sc1C(=O)O was -103

Lab note: measured INHIBITION of Cc1occc1C(=O)N1CCC2(CCC2NC(=O)c2ccn(C)c2)CC1 (stereo not drawn) was -23.1

Lab note: measured INHIBITION of COC(=O)c1cccn1C1CCN(Cc2ccccc2)CC1 was -122

Lab note: measured INHIBITION of Fc1cccc(N2CCCC3(CN(Cc4nccs4)CCO3)C2)c1 (stereo not drawn) was 0.276

Lab note: measured INHIBITION of Cc1ccc(C(CNCc2nccn2C)N2CCOCC2)s1 (stereo not drawn) was -28.6

Lab note: measured INHIBITION of CS(=O)(=O)NCc1cc(=O)n2c(n1)CN(Cc1ccco1)CCC2 was -15.8

Lab note: measured INHIBITION of Cc1nc(NCC2CC2)nc2c1COCC21CCN(S(=O)(=O)C2CC2)C1 (stereo not drawn) was 12.5

Lab note: measured INHIBITION of COc1ccc(CNC(C)c2cccc(Br)c2)c(OC)c1OC (stereo not drawn) was 67.1

Lab note: measured INHIBITION of O=C(c1cccc(Cl)c1)N1CC[C@H]2[C@H]1CCN2CC1CC1 was -55.8

Lab note: measured INHIBITION of CCCn1cc(CNCC(c2ccc(C)s2)N2CCOCC2)cn1 (stereo not drawn) was 56.8

Lab note: measured INHIBITION of CC(C)c1nccc(CN2CCCC(O)(CN3CCCC3)C2)n1 (stereo not drawn) was -69.7

Lab note: measured INHIBITION of Cc1cnn(CC2CCCN2C(=O)c2ccc(OC(C)C)nc2)c1 (stereo not drawn) was -94.7

Lab note: measured INHIBITION of CN(Cc1ccccc1)CC1CC2(CO1)CN(c1nncs1)C2 (stereo not drawn) was -0.698

Lab note: measured INHIBITION of COc1c(CNCc2ccccc2Cn2cccn2)c(C)nn1C was 57.4

Lab note: measured INHIBITION of Cn1nc(COCC2CC2)c2c1CCN(Cc1cccs1)C2 was -41.4

Lab note: measured INHIBITION of Cn1cc(CCC(=O)N2C[C@@H]3CC[C@H]2CN(Cc2ccccc2)C3)cn1 was 14.3

Lab note: measured INHIBITION of CN1CCOC(CNC(=O)C2(c3cccc(C(F)(F)F)c3)CCCC2)C1 (stereo not drawn) was 55.9
